Origin of measurements: paper PMC9781087

For each record, write down the corresponding inhibition at 100 µM.
molecular target: collagenase A (ColA) (Clostridium perfringens); assay: biochemical; parameters: species or system C. perfringens; conditions: read-out: Inhibition(%) on ColA
One number for each entry, in %.

| Compound | Numeric Readout |
| --- | --- |
| Oc1cc(O)c2c(c1)O[C@H](c1ccc(O)c(O)c1)[C@H](O)C2 [epicatechin] | 3.6 |
| C[C@H](CS)C(=O)N1CCC[C@H]1C(=O)O [captopril, reference compound] | 5.2 |
| COc1ccc(-c2coc3cc(O)cc(O)c3c2=O)cc1 | 57.9 |
| O=c1ccc2ccc(O)cc2o1 | -10.2 |
| COc1cc(/C=C/C(=O)CC(=O)/C=C/c2ccc(O)c(OC)c2)ccc1O | 102 |
| O=C(/C=C/c1ccccc1)c1ccccc1O [2′-Hydroxychalcone, 2′-hydroxychalcone] | 87.8 |
| O=c1cc(-c2ccccc2)oc2cc(O)cc(O)c12 | -3.4 |
| O=C(O)[C@H]1/C(=C/CO)O[C@@H]2CC(=O)N21 [potassium clavulanate, reference compound] | -8.1 |

# ---- query compound ----
If you can, please state the reported inhibition at 100 µM value of CC1(C)[C@H](C(=O)O)N2C(=O)C[C@H]2S1(=O)=O [sulbactam, reference compound] .
-10.7

###

molecular target: collagenase A (ColA) (Clostridium perfringens, UniProt P43153); experiment: biochemical; design: species or system C. perfringens; conditions: read-out: Inhibition (%) on ColA
Sequence (P43153 87-1104 limits assumed): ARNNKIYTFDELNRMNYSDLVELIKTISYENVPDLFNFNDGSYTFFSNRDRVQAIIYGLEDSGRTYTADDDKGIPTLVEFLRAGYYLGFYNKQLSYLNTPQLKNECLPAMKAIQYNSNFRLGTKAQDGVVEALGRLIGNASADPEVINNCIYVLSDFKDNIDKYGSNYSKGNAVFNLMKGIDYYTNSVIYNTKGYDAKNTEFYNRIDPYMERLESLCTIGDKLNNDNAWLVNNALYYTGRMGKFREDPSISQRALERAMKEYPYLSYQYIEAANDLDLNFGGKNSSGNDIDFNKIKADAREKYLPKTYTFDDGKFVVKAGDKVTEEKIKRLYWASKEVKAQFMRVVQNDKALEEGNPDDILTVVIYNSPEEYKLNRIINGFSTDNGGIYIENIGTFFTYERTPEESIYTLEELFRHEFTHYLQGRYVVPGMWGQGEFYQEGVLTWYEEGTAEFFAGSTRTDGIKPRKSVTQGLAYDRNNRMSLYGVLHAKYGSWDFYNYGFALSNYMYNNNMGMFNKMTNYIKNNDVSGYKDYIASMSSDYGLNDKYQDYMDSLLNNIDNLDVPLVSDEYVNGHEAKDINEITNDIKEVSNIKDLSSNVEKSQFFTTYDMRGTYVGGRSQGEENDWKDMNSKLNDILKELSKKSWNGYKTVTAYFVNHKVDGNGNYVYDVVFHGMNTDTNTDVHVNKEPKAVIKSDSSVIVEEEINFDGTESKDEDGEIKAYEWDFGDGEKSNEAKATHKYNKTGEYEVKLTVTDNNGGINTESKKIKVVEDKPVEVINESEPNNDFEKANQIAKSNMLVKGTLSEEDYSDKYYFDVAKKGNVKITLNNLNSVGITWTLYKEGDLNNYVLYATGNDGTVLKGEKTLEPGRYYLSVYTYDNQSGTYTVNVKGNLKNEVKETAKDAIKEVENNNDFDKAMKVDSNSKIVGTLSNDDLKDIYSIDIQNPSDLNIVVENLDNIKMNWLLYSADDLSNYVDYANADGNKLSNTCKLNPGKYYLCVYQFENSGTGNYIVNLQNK
Exercise: state measured inhibition at 10 µM for each of the molecules provided.
Give bare numbers, in %.

For every listed record, write down its inhibition at 10 µM.
1. COc1ccc(-c2coc3cc(O)cc(O)c3c2=O)cc1
2. O=C(O)c1cc(O)c2c(c1)C(=O)c1cccc(O)c1C2=O
3. COc1ccc2[nH]c3c(c2c1)CCNC3C(=O)O (centres unmarked)

34.1
37.4
-5.2

###

target: collagenase A (ColA) (Clostridium perfringens, UniProt P43153); test: biochemical; set-up: species or system C. perfringens; details: read-out: Inhibition (%) on ColA
Metric Name: inhibition at 50 µM

// worked examples, inhibition at 50 µM included
| Compound | Target Or Test System | inhibition at 50 µM |
| --- | --- | --- |
| O=c1c(O)c(-c2cc(O)c(O)c(O)c2)oc2cc(O)cc(O)c12 [Myricetin, myricetin] | collagenase A (ColA) (Clostridium perfringens, UniProt P43153) | 13.6% |
| O=c1c(O)c(-c2ccccc2)oc2ccccc12 [3-Hydroxyflavone, 3-hydroxyflavone] | collagenase A (ColA) (Clostridium perfringens, UniProt P43153) | 25.1% |
| COc1ccc2[nH]c3c(c2c1)CCNC3C(=O)O (stereo not shown) | collagenase A (ColA) (Clostridium perfringens, UniProt P43153) | 2.8% |

Now examine the next entry.
Could you share which inhibition at 50 µM value was measured for NC(=O)NCCC[C@H](N)C(=O)O [Citrulline, citrulline] ?
24.3%

###

Answer each item with its documented Inhibition (%) on ColA.
target: collagenase A (ColA) (Clostridium perfringens, UniProt P43153); assay: biochemical; design: species or system C. perfringens; settings: 100 µM, after 30 min of incubation, preliminary screening (Table S1); * = compound precipitated due to low solubility
Numbers only, in %.

State recorded Inhibition (%) on ColA for all listed compounds.
1. Cc1ccc(S(=O)(=O)N[C@@H](CCCNC(=N)N)C(=O)O)cc1
2. NC(=O)NCCC[C@H](NC(=O)OCC1c2ccccc2-c2ccccc21)C(=O)O
3. c1ccc2c3c([nH]c2c1)CNCC3 [tetrahydronorharman]
4. C[C@@H]1O[C@@H](OC[C@H]2O[C@@H](Oc3c(-c4ccc(OCCO)c(OCCO)c4)oc4cc(OCCO)cc(O)c4c3=O)[C@H](O)[C@@H](O)[C@@H]2O)[C@H](O)[C@H](O)[C@H]1O [trihydroxyethylrutin, reference compound]

1: 24.8; 2: 20.8; 3: 21.3; 4: 1.3

Record Inhibition (%) on ColA per entry; entries follow.
1. Cl.NCCS [cysteamine hydrochloride, reference compound]
2. COc1cc(CNC(=O)CCCC/C=C/C(C)C)ccc1O [Capsaicin, capsaicin, reference compound]
3. COc1ccc(-c2coc3cc(OC)ccc3c2=O)cc1

1. 2.8
2. 87.9
3. 15.7

Any idea what Inhibition (%) on ColA came out for CCOC(=O)[C@H](CCCNC(=N)N)NC(=O)c1ccccc1.Cl on collagenase A (ColA) (Clostridium perfringens, UniProt P43153)?
-6.6
